From: patent US20230295310A1

- tested_target: T1, human CD3 expressed on cells (human, UniProt P07766 23-207; P04234 22-171; P09693 23-182)
- T1 construct: whole, on cells; CD3 complex on Jurkat cells and on human primary T cells
- T1 sequence (P07766 23-207, chain 1 of 3): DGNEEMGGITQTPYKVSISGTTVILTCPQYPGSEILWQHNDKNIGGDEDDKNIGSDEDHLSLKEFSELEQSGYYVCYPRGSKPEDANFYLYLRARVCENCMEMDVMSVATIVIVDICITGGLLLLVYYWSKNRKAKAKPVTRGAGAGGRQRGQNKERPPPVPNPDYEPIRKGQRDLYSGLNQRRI
- T1 sequence (P04234 22-171, chain 2 of 3): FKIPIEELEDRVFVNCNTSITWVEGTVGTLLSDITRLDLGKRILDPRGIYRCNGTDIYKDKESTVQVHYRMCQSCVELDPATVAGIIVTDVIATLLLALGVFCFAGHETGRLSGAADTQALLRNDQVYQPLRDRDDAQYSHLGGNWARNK
- T1 sequence (P09693 23-182, chain 3 of 3): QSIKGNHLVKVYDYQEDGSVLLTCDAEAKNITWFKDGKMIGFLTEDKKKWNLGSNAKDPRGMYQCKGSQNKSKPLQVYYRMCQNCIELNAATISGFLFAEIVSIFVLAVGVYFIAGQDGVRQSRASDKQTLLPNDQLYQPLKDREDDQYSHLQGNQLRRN
- assay_protocol: flow cytometry, 25 nM
quantity_measured: Human primary T Cell Binding (FOI)
Provide the reading as a plain figure in FOI.

*Q* Name the reported Human primary T Cell Binding (FOI) value associated with the binder mAb 42 (antibody, V domains shown) VH: QAQLVQSGSELKKPGASVKVSCKASGYTFTKHSMNWVRQAPGQGLEWMGWINTNTGNPTYAQGFTGRFVFSLDTSVTTAYLQISSLKAEDTAVYYCAREGDYDFWSGFFNFDYWGQGTLVTVSS VL: DIQMTQSPSSLSASVGDRVTITCRASQGIRNDLGWYQQKPGKAPKRLIYAASSLQSGVPSRFSGSGSGAEFTLTISSLQPEDFATYYCLQHNSYPRTFGQGTKVEIK
*A* 96.2

*Q* I'd like to know its Human primary T Cell Binding (FOI). The binder in question is mAb 151 (antibody, V domains shown) VH: QVQLVQSGAEVKKPGASVKVSCKASGYTFTAYHTHWVRQAPGQGLEWMGWIYPKSGRTTYTQKFQGRVTMTRDTSISTVYMELSRLKSDDTAVYYCARVGALLFDYWGQGTLVTVSS VL: DIQMTQSPSSLSASVGDRVTITCRASQGIRNDLGWYQQKPGKAPKCLIYAASNLQSGVPSRFSGSGSGTEFTLTISSLQPEDFATYYCLQHNSYPRTFGQGTKVDVK
*A* 1.36

*Q* Entry mAb 132 (antibody, V domains shown) VH: DVQLVESGGGTVKTGGSLRLSCVASGFSFKKAWMNWVRQAPGKGLEWVGRIKKNSDGGTADYAAPVKGRFTISRDDSKKTLYLQMNSLQTEDTAVYYCTTLDSSSWYVGYYYMDVWGKGTTVTVSS VL: DIQMTQSPSSVSASVGDRVIITCRASQDINNWLAWYQQKPGIAPKLLIYTASSLQSGVPSRFSGSGSVSDFTLTIGSLQPEDFATYYCQQAHSLPITFGQGTRLEIK has what Human primary T Cell Binding (FOI)?
*A* 164
